Cited source: paper PMC11845477

# Relative MIC listing for each entry below
Test system: K. pneumoniae ATCC 10031 (SEN) and K. pneumoniae ATCC 700603 (MDR)
protocol: Adaptive laboratory evolution (ALE), relative MIC of evolved lines
Type: cell-based, Klebsiella pneumoniae
cond: Klebsiella pneumoniae ATCC 10031 (KP-SEN), evolved line 5
Excerpt: Using the same set of bacterial strains, we initiated adaptive laboratory evolution with the aim to maximize the level of antibiotic resistance in the populations achieved during a longer, but fixed time period. […] A robotic liquid handling system was used to automatically prepare a 11 to 16-step serial dilution in 384-well microtiter plates (Greiner). […] Cell growth was monitored by measuring the optical density (OD600 values, using Biotek Synergy microplate reader). […]
property: Relative MIC

• C[C@H]1c2cccc(O)c2C(=O)C2=C(O)[C@]3(O)C(=O)C(C(N)=O)=C(O)[C@@H](N(C)C)[C@@H]3[C@@H](O)[C@@H]21 [Doxycycline] = 256
• Nc1nc(-n2cc(C(=O)O)c(=O)c3cc(F)c(N4CC(O)C4)c(Cl)c32)c(F)cc1F [Delafloxacin] = 16384
• CN[C@@H]1[C@@H](O[C@H]2O[C@H](CO)[C@@H](N)[C@H](O)[C@H]2O)OC2C[C@@H](N)[C@@H](O[C@H]3[C@H](O)[C@@H](O)[C@H](N)C[C@@H]3N)OC2[C@@H]1O (stereo partly drawn) [Apramycin] = 64
• CC(C)c1ccc(Cn2ccc3c4c(N)nc(NC5CC5)nc4ccc32)cc1 [SCH79797] = 32
• C[C@@H](O)[C@H]1C(=O)N2C(C(=O)O)=C(S[C@H]3CC[S@@+]([O-])C3)S[C@H]12 [Sulopenem] = 16
• C[C@@H]1CN2c3c(cc4c(N5C(=O)OC[C@@H]5C)noc4c3F)CC3(C(=O)NC(=O)NC3=O)[C@H]2[C@H](C)O1 [Zoliflodacin] = 1024
